- experiment: Tumor exposure of Conjugate 1 and SN-38 in H1975 mouse xenograft model at 24 h
- Format: in vivo
- study conditions: mouse, in vivo, 100 mg/kg
endpoint name: concentration at 24 h (nM)
Reply with just the number (in nM).

Query :: Quick one: give measured concentration at 24 h for CCc1c2c(nc3ccc(OC(=O)N4CCC(CCn5ccc6cc(-n7c(O)nnc7-c7cc(C(C)C)c(O)cc7O)ccc65)CC4)cc13)-c1cc3c(c(=O)n1C2)COC(=O)[C@]3(O)CC [Conjugate 1]
Result :: 149

====

- experiment: Phase 1/2a study, plasma pharmacokinetics of Conjugate 1 and SN-38
- Type: in vivo, human
- study conditions: human, in vivo, Elimination half-life
- Excerpt: In a Phase 1/2a study of Conjugate 1, patients received weekly Conjugate 1 treatment for 3 of 4 weeks in a 28-day cycle. The patients have histologically or cytologically confirmed advanced solid tumors. Their tumor types included anus, breast, cholangiocarcinoma, colon, Ewing sarcoma, liver, lung, neuroendocrine (unknown primary), ovary, pancreas, salivary gland, and sarcoma. They have received one or more prior lines of anticancer therapy. […]
endpoint name: half-life

Query :: State its half-life: CCc1c2c(nc3ccc(OC(=O)N4CCC(CCn5ccc6cc(-n7c(O)nnc7-c7cc(C(C)C)c(O)cc7O)ccc65)CC4)cc13)-c1cc3c(c(=O)n1C2)COC(=O)[C@]3(O)CC [Conjugate 1]
Result :: ~10 h
